Hey, just so you know, these numbers are from patent US20250034266A1.

target: T1, human CCR8 (human, UniProt P51685 1-355)
T1 construct: whole, on cells; also called hCCR8
T1 sequence (P51685 whole entry): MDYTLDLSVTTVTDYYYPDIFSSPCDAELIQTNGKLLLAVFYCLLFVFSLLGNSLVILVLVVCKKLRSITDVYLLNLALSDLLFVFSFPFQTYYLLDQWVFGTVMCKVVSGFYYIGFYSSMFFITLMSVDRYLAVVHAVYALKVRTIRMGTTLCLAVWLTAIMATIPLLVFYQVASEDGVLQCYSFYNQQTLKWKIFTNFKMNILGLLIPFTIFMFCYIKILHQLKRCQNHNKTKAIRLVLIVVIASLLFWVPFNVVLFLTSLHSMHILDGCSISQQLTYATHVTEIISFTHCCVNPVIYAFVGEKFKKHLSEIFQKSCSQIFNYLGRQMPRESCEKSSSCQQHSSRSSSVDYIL
procedure.text: FACS of purified scFv on CHO-K1-human CCR8 cells
Please respond with reported GeoMean AF647 (RL1-H) of CHO-K1-human CCR8 / GeoMean AF647 (RL1-H) in H12(NC) for every item in the list.

query: Query (binder): VL-PH5-P3E4 (scFv) scFv: EVQLVESGGGLVQPGGSLKLSCAASGFTFNTYAMNWVRQASGKGLEWVGRIRSKSNFYATAYAASVKGRFTISRDDSKNTAYLQMNSLKTEDTAVYYCTRGRDYGSSYAMDYWGQGTLVTVSSGGGGSGGGGSGGGGSDIVMTQSPLSLPVTPGEPASISCRSSKSLLHSNANTYLYWFLQKPGQSPQLLIYRMSNLASGVPDRFSGSGSGTDFTLKISRVEAEDVGVYYCMQHLRYPLTFGGGTKVELK ; field requested: GeoMean AF647 (RL1-H) of CHO-K1-human CCR8 / GeoMean AF647 (RL1-H) in H12(NC)
result: 2.9

query: Query (binder): VL-PH5-P5D9 (scFv) scFv: EVQLVESGGGLVQPGGSLKLSCAASGFTFNTYAMNWVRQASGKGLEWVGRIRSKSNFYATAYAASVKGRFTISRDDSKNTAYLQMNSLKTEDTAVYYCTRGRDYGSSYAMDYWGQGTLVTVSSGGGGSGGGGSGGGGSDIVMTQSPLSLPVTPGEPASISCRSSKSLLHSNANTYLYWFLQKPGQSPQLLIYRMSNLASGVPDRFSGSGSGTDFTLKISRVEAEDVGVYYCMQHLSYPLTFGGGTKVELK ; field requested: GeoMean AF647 (RL1-H) of CHO-K1-human CCR8 / GeoMean AF647 (RL1-H) in H12(NC)
result: 3.2

query: Query (binder): VH-PH5-P5F7 (scFv) scFv: EVQLVESGGGLVQPGGSLKLSCAASGFTFNTYAMNWVRQASGKGLEWVGRIRSKSNFYATAYAASVKGRFTISRDDSKNTAYLQMNSLKTEDTAVYYCTRGREYGRSYAMDYWGQGTLVTVSSGGGGSGGGGSGGGGSDIVMTQSPLSLPVTPGEPASISCRSSKSLLHSNANTYLYWFLQKPGQSPQLLIYRMSNLASGVPDRFSGSGSGTDFTLKISRVEAEDVGVYYCMQHLEYPLTFGGGTKVELK ; field requested: GeoMean AF647 (RL1-H) of CHO-K1-human CCR8 / GeoMean AF647 (RL1-H) in H12(NC)
result: 7.1

query: Query (binder): VH-PH5-P3E3 (scFv) scFv: EVQLVESGGGLVQPGGSLKLSCAASGFTFNTYAMNWVRQASGKGLEWVGRIRSKSNFYATAYAASVKGRFTISRDDSKNTAYLQMNSLKTEDTAVYYCTRGREYGSAYAMDYWGQGTLVTVSSGGGGSGGGGSGGGGSDIVMTQSPLSLPVTPGEPASISCRSSKSLLHSNANTYLYWFLQKPGQSPQLLIYRMSNLASGVPDRFSGSGSGTDFTLKISRVEAEDVGVYYCMQHLEYPLTFGGGTKVELK ; field requested: GeoMean AF647 (RL1-H) of CHO-K1-human CCR8 / GeoMean AF647 (RL1-H) in H12(NC)
result: 3.6
